- tested system: KRAS G12C in H358 cells (Homo sapiens, UniProt P01116, G12C)
- Construct: endogenous in cells; host or cells: H358
- Sequence (P01116 1-188 isoform P01116-2 G12C): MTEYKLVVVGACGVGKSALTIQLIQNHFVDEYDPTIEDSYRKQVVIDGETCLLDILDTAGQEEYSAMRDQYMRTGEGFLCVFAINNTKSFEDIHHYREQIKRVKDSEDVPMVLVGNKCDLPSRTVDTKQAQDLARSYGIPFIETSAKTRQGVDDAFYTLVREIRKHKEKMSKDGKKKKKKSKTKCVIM
- assay remarks: H358 Cell Activity Assay (Raf-1 RBD capture of active Ras, MSD)
- Type: cell-based
- experimental context: 6 hours treatment
reported property: IC50 (µM)

compound	tested system	unit name	observed value
C=CC(=O)N1CCN(c2nc(OCCN(C)C)nc3c2C[C@@H](C)[C@H](c2c(C)ccc4[nH]ncc24)C3)CC1 [Example C6]	KRAS G12C in H358 cells (Homo sapiens, UniProt P01116, G12C)	µM	0.521
C=CC(=O)N1CCN(c2nc(N3CC(N(C)C)C3)nc3c2C[C@@H](C)[C@H](c2c(Cl)c(C)cc4[nH]ncc24)C3)CC1 [Example F7]	KRAS G12C in H358 cells (Homo sapiens, UniProt P01116, G12C)	µM	0.062
C=CC(=O)N1CCN(c2nc(N3CC(N(C)C)C3)nc3c2C[C@@H](C)[C@H](c2c(C)ccc4[nH]ncc24)C3)CC1 (single isomer, unassigned) [Example F2]	KRAS G12C in H358 cells (Homo sapiens, UniProt P01116, G12C)	µM	0.277

// provenance: patent US10590115B2
